Record form. Attribute: IC50. Fill in for each entry.
Target: G9a (Homo sapiens, UniProt Q96KQ7)
Sequence (Q96KQ7 whole entry): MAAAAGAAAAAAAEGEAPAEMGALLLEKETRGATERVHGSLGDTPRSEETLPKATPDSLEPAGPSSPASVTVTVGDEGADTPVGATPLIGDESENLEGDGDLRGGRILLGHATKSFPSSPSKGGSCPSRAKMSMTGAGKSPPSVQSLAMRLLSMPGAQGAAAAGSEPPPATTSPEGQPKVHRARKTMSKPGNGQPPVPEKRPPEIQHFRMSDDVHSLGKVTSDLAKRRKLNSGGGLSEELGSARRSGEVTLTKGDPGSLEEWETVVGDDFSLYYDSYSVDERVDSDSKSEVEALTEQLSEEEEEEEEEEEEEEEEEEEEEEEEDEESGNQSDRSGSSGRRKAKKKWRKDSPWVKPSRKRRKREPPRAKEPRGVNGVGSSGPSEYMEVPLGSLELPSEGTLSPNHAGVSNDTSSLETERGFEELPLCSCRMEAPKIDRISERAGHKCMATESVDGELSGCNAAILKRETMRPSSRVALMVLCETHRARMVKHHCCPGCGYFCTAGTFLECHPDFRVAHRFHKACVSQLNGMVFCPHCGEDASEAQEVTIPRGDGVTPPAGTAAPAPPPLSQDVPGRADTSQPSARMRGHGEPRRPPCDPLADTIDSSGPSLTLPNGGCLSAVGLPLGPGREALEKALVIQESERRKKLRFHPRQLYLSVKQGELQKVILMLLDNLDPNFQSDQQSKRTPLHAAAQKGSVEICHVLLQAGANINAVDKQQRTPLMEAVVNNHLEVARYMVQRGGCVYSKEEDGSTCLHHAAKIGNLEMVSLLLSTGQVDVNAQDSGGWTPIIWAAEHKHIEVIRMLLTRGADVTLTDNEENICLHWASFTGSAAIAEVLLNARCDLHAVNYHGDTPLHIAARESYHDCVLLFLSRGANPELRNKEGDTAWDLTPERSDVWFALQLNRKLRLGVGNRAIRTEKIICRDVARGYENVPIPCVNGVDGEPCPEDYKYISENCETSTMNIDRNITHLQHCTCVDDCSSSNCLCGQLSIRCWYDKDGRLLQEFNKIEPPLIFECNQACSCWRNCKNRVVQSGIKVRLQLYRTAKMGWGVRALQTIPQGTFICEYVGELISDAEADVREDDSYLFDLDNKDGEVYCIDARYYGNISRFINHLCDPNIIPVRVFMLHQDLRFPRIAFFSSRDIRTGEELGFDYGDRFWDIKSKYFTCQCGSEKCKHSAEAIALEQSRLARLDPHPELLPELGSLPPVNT
Test: G9a AlphaLISA enzymatic activity assay
Format: biochemical
Conditions: 0.15 nM G9a, 15 uM S-adenosyl-methionine, 100 nM biotinylated histone 3 peptide (1-21), 1 hour at room temperature; read-out: G9a in (uM) (IC50, concentration that produced 50% inhibition)
Counter-ions that a name gives are not always drawn.
I only need the number, in µM, no unit after it.

Task item: Which IC50 value belongs to COc1cc2c3c(c(NC(C)C)nc2cc1OCCCN1CCCC1)CN(C)CC3 [Example 71, formate] ?
Reply: 1.1

Task item: Then what about the compound COc1cc2c3c(c(NCC4CC4)nc2cc1OCCCN1CCCC1)CC(C)(C)C3 [Example 97, formate] ?
Reply: 0.084

Task item: Then what about the compound CNc1nc2cc(OCCCN3CCCC3)c(OC)cc2c2c1CCCCN2 [Example 33, formate] ?
Reply: 0.012

Task item: Then what about the compound COc1cc2c3c(c(NCCSC)nc2cc1OCCCN1CCCC1)CCC3 [Example 120, formate] ?
Reply: 0.075
